- MEASUREMENT NOTES: Toxicity (median lethal dose)
- STATED CONDITIONS: in vivo, po; mouse, P.O.
QUANTITY: LD50

Looking up `N=C(N)c1ccc2cc(OC(=O)c3ccc(NC4=NCCN4)cc3)ccc2c1` , I found its LD50 recorded as > 3000 mg/kg

---

# Lookup of reported Inhibition of complement mediated hemolysis (%) keyed by entry
- System: complement mediated hemolysis
- MEASUREMENT NOTES: Inhibition of complement mediated hemolysis
- Format: cell-based
- STATED CONDITIONS: 1 × 10^-6
Provide only the numeric value, understood in %.

Observe how each entry below is paired with its result.
COMPOUND	U	RECORDED RESULT
CC1CNC(Nc2ccc(C(=O)Oc3ccc4cc(C(=N)N)ccc4c3)cc2)=N1 (stereo not shown) [compound 4]	%	96
CCNC(=N)Nc1ccc(C(=O)Oc2ccc3cc(C(=N)N)ccc3c2)cc1 [compound 10]	%	86
N=C(N)c1ccc2cc(OC(=O)c3ccc(NC4=NCCN4)cc3)ccc2c1 [Compound No. 2]	%	91

With those in mind, consider the next compound.
Looking up CC(=O)NCCNC(=N)Nc1ccc(C(=O)Oc2ccc3cc(C(=N)N)ccc3c2)cc1 [compound 16] , I found its Inhibition of complement mediated hemolysis (%) recorded as 89

---

- Test system: complement mediated hemolysis
- MEASUREMENT NOTES: Inhibition of complement mediated hemolysis
- Format: cell-based
- STATED CONDITIONS: 1 × 10^-7
Field: label. Allowed values: Y (Inhibition of complement mediated hemolysis (%) < 8%) or N (Inhibition of complement mediated hemolysis (%) >= 8%).

COMPOUND	CLASS
N=C(N)c1ccc2cc(OC(=O)c3ccc(NC4=NCCN4)cc3)ccc2c1	N
CCCCNC(=N)Nc1ccc(C(=O)Oc2ccc3cc(C(=N)N)ccc3c2)cc1	Y

Task: Regarding `CCNC(=N)Nc1ccc(C(=O)Oc2ccc3cc(C(=N)N)ccc3c2)cc1` , kindly confirm whether its Inhibition of complement mediated hemolysis (%) is beneath 8%.
Output: N

Task: Regarding CC1CNC(Nc2ccc(C(=O)Oc3ccc4cc(C(=N)N)ccc4c3)cc2)=N1 (centres unmarked) , kindly confirm whether its Inhibition of complement mediated hemolysis (%) is beneath 8%.
Output: N

Task: Regarding `CC(=O)NCCNC(=N)Nc1ccc(C(=O)Oc2ccc3cc(C(=N)N)ccc3c2)cc1` , kindly confirm whether its Inhibition of complement mediated hemolysis (%) is beneath 8%.
Output: N

Task: Regarding `CN=C(NC)Nc1ccc(C(=O)Oc2ccc3cc(C(=N)N)ccc3c2)cc1` , kindly confirm whether its Inhibition of complement mediated hemolysis (%) is beneath 8%.
Output: Y

Task: Regarding `CN1CCNC1=Nc1ccc(C(=O)Oc2ccc3cc(C(=N)N)ccc3c2)cc1` , kindly confirm whether its Inhibition of complement mediated hemolysis (%) is beneath 8%.
Output: Y

---

Reported IC50, Trypsin (Bos taurus).
Provide only the numeric value, understood in nM.

Observe how each entry below is paired with its result.
COMPOUND	ASSAYED TARGET	IC50 / nM
CC1CNC(Nc2ccc(C(=O)Oc3ccc4cc(C(=N)N)ccc4c3)cc2)=N1 (stereo not shown)	Trypsin (Bos taurus)	3000
N=C(NCCOCc1ccccc1)Nc1ccc(C(=O)Oc2ccc3cc(C(=N)N)ccc3c2)cc1	Trypsin (Bos taurus)	2000
N=C(N)c1ccc2cc(OC(=O)c3ccc(Nc4ncc[nH]4)cc3)ccc2c1	Trypsin (Bos taurus)	600

With those in mind, consider the next compound.
Hey, Trypsin (Bos taurus) data for `CCNC(=N)Nc1ccc(C(=O)Oc2ccc3cc(C(=N)N)ccc3c2)cc1` : IC50 came out at 2000

The reported measurements were obtained from patent US4777182A.
